- Target System: T1, EBV gp350 expressed on the surface of stably transfected CHO cells (Epstein-Barr virus, UniProt P03200 1-907)
- T1 construct: also called native gp350; gp350 expressing CHO cells
- T1 sequence: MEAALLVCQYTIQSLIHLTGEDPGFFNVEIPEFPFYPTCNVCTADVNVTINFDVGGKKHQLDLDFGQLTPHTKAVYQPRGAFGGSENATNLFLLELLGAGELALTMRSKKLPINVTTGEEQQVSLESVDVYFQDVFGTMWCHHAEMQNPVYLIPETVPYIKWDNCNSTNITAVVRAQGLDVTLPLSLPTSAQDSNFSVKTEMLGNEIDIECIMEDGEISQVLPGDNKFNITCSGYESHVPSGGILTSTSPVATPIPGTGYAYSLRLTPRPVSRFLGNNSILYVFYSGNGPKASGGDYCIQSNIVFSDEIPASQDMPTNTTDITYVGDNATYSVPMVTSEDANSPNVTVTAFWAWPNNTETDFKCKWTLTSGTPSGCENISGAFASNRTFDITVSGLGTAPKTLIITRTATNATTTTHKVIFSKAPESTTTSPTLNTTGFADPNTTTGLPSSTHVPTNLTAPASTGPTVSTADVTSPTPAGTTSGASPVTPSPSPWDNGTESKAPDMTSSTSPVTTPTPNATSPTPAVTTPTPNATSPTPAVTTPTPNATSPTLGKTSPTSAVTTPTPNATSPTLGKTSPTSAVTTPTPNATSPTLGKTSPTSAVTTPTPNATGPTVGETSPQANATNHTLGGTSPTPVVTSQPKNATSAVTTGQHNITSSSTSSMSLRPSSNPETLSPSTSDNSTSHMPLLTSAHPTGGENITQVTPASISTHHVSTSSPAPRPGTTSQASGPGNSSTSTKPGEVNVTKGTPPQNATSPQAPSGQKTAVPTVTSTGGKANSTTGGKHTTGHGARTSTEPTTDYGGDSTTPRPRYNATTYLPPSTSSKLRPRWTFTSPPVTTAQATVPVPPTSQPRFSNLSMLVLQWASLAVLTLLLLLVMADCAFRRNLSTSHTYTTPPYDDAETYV
- Experiment Notes: cross-competition on gp350-CHO cells (flow), unlabeled 500 µg/ml; competitor: biotinylated HB1
Property Name: % inhibition of biotinylated nAbs (%)
Respond numerically; units are % and should not be typed.

Reported % inhibition of biotinylated nAbs, binder HB5 (antibody, V domains shown, also called mHB5) VH: AELVRPGASVKISCKAFGYTFTNHNINWVKQRPGQGLDWIGYINPYNDYTSYNQKFKGKATLTVDKSSNTAYMELSSLTSEDSAVYYCARSEGWLRRGAWFAYWGQGTLVTVSA VL: AILSVSPGERVSFSCRASQSIGTSIHWYQQRTNDSPRLLIKYASESISGIPPRFSGSGSGTDFTLSINSVESEDIADYHCQQSNSWPMLTFGAGTKLELKR : ____ 92

Here is the next binder: HB11 (antibody, V domains shown) VH: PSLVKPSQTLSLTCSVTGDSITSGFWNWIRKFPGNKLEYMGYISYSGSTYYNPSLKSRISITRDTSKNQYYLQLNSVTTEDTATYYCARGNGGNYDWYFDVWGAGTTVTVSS VL: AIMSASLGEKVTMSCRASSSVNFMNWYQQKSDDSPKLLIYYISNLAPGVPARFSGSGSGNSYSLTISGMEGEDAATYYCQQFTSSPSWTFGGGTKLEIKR 93

Here is the next binder: HB17 (antibody, V domains shown) VH: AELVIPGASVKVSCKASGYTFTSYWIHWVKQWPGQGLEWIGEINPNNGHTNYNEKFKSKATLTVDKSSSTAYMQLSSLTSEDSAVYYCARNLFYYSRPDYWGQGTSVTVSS VL: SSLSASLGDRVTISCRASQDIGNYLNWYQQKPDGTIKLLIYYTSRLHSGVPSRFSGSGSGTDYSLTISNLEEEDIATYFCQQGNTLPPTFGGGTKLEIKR 23
